# System: C2A
# method notes: qHTS profiling for inhibitors of Plasmodium falciparum proliferation (AID 504749); note: nearly all actives have a fitted effect of over 60% in size; note: potency is the fitted concentration of half-maximal effect
# reported conditions: P. falciparum in erythrocytes, SYBR Green DNA, 72 h; series mostly up to 28.7 µM
Results filed as inconclusive are left out. Active and inactive are the calls of the source. Calls come from the whole dose curve; as a rule, active = well fitted inhibition curve with a large enough effect; inconclusive = small, poorly fitted or top-dose-only effect; inactive = flat fitted curve, though single readings scatter.

molecule: CC(=O)Nc1ccc(OCC(O)CNC(C)C)cc1 (stereo not given)
Potency: inactive
--
molecule: CNCCc1ccccn1
Potency: inactive
--
molecule: CCN(CC)CCOc1ccc2c(c1)C(=O)c1cc(OCCN(CC)CC)ccc1-2
Potency: 10 µM (active)
--
molecule: Cc1cc(C)cc(OCC2CNC(=O)O2)c1 (stereo not given)
Potency: inactive
--
molecule: CCCCCCCCNC(C)C(O)c1ccc(SC(C)C)cc1 (stereo not given)
Potency: 0.891 µM (active)
--
molecule: C#C[C@]1(O)CC[C@H]2[C@@H]3CCc4cc(OC)ccc4[C@H]3CC[C@@]21C
Potency: inactive
--
molecule: NCCNC(=O)c1ccc(Cl)cn1
Potency: inactive
--
molecule: CCCCC(CC)COC(=O)c1ccc(N(C)C)cc1 (stereo not given)
Potency: inactive
--
molecule: Cc1c(-c2ccccc2)oc2c(C(=O)OCCN3CCCCC3)cccc2c1=O
Potency: inactive
--
molecule: Nc1ccc(S(=O)(=O)Nc2cnc3ccccc3n2)cc1
Potency: inactive
--
molecule: C#C[C@]1(O)CC[C@H]2[C@@H]3CCC4=CC(=O)CC[C@@H]4[C@H]3CC[C@@]21CC
Potency: inactive
--
molecule: NC(=O)c1ccccc1O
Potency: inactive
--
molecule: C#C[C@]1(OC(C)=O)CC[C@H]2[C@@H]3CCC4=C/C(=N/O)CC[C@@H]4[C@H]3CC[C@@]21CC
Potency: inactive
--
molecule: O=C(Nc1cccc(C2=NCCN2)c1)Nc1cccc(C2=NCCN2)c1
Potency: 5.01 µM (active)
--
molecule: CCOc1ccccc1C(N)=O
Potency: inactive
--
molecule: CC(=O)OC[C@H]1O[C@@H](n2ncc(=O)[nH]c2=O)[C@H](OC(C)=O)[C@@H]1OC(C)=O
Potency: inactive
--
molecule: CC(=O)NO
Potency: inactive
--
molecule: CC1=C(C(=O)O)N2C(=O)[C@@H](NC(=O)[C@H](N)c3ccccc3)[C@H]2SC1
Potency: inactive
--
molecule: CCN1/C(=C/C=C/c2sc3ccccc3[n+]2CC)Sc2ccccc21
Potency: 0.126 µM (active)
--
molecule: CCCN(CCc1cccs1)[C@H]1CCc2c(O)cccc2C1
Potency: 11.2 µM (active)
--
molecule: NCCNc1cccc2ccccc12
Potency: inactive
--
molecule: CCNC(=O)/C=C/c1cccc(Br)c1
Potency: inactive
--
molecule: CC(C)=CCOc1ccc(/C=C/C(=O)c2ccc(OCC=C(C)C)cc2OCC(=O)O)cc1
Potency: inactive
--
molecule: CN(C)CCN1C(=O)c2ccccc2N(C)c2ccccc21
Potency: inactive
--
molecule: CCCN(CCC)S(=O)(=O)c1ccc(C(=O)O)cc1
Potency: inactive

====

# Test system: TAB165
# method notes: qHTS profiling for inhibitors of Plasmodium falciparum proliferation (AID 504749); note: nearly all actives have a fitted effect of over 60% in size; note: potency is the fitted concentration of half-maximal effect
# reported conditions: P. falciparum in erythrocytes, SYBR Green DNA, 72 h; series mostly up to 28.7 µM
Results filed as inconclusive are left out. The source made the active and inactive calls. The call rests on the fitted dose curve; in most records, active means well fitted inhibition curve with a large enough effect; inconclusive means small, poorly fitted or top-dose-only effect; inactive means flat fitted curve, though single readings scatter.

compound: N#CCC(=O)NN
Potency: inactive
//
compound: CC(C)NCC(O)c1ccc2ccccc2c1 (stereo not drawn)
Potency: 10 µM (active)
//
compound: O=C(Nc1cccc(C2=NCCN2)c1)Nc1cccc(C2=NCCN2)c1
Potency: 2.51 µM (active)
//
compound: CC(=O)Nc1ccc(CC(=O)O)cc1
Potency: inactive
//
compound: NS(=O)(=O)c1ccc(Cl)c(S(N)(=O)=O)c1
Potency: inactive
//
compound: COc1cc(NS(=O)(=O)c2ccc(N)cc2)ncn1
Potency: inactive
//
compound: CCCCNC(=O)NS(=O)(=O)c1ccc(N)cc1
Potency: inactive
//
compound: CC1(COc2ccc(CC3SC(=O)NC3=O)cc2)CCCCC1 (stereo not drawn)
Potency: inactive
//
compound: c1ccc(-c2nc[nH]c2-c2ccccc2)cc1
Potency: inactive
//
compound: CC(=O)Oc1ccc(C)cc1
Potency: inactive
//
compound: Cc1nc(-c2ccc(Cl)cc2)oc1COC(C)(C)C(=O)O
Potency: inactive
//
compound: OC1C(O)C(O)C(O)C(O)C1O (stereo not drawn)
Potency: inactive
//
compound: CCCCC(CC)COC(=O)/C=C/c1ccc(OC)cc1 (stereo not drawn)
Potency: inactive
